Molecular target: T1, Ube2g2:G2BR complex ( | human, UniProt P60604 1-165; Q9UKV5 574-600)
T1 sequence 1: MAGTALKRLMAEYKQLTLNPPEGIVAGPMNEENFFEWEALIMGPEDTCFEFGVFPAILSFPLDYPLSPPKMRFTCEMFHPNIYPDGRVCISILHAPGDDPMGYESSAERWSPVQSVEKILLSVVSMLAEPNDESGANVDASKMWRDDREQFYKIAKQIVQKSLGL
T1 sequence 2: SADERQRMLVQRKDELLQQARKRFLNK
Test: NMR titration
readout.name: Kd (nM)
Express it in nM; write the number only.

Query: Provide measured Kd value, entry: gp78 RING finger (aa 313-380) (domain or fragment, human, UniProt Q9UKV5 313-380, looked up) KNYLRVVGNMEARFAVATPEELAVNNDDCAICWDSMQAARKLPCGHLFHNSCLRSWLEQDTSCPTCRM
Reply: 3000
